Numbers sourced from ChEMBL document CHEMBL3616452.

assay-info: Antiviral activity against wild-type Influenza A virus (A/WSN/1933(H1N1)) assessed as virus-mediated cytopathic effect in MDCK cells
Type: functional, cell-based
measure-name: EC50
Units required after the number.

Challenge: For Cn1c(=O)c2c(-c3ccccc3)n3c(c2n(C)c1=O)C(c1ccccc1F)OCC3(C)C (stereo unspecified) , what is its reported EC50?
Response given: 2300 nM

----------
study-target: Nucleoprotein (Influenza A virus (strain A/Wilson-Smith/1933 H1N1), UniProt P15682)
Sequence (P15682 whole entry): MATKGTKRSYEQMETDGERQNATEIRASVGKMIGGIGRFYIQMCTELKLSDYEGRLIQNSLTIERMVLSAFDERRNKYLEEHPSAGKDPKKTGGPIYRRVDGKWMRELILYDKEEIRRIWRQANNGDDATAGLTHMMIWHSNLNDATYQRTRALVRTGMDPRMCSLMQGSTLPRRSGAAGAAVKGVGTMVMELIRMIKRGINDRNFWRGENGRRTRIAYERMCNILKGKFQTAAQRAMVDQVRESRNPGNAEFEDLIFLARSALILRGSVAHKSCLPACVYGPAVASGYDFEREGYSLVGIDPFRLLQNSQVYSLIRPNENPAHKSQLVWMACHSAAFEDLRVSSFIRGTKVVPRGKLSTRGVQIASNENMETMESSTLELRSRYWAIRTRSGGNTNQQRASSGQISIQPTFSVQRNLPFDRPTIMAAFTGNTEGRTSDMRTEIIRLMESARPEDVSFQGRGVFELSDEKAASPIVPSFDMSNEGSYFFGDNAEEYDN
assay-info: Binding affinity to Influenza A virus (A/WSN/1933(H1N1)) nucleoprotein transfected in 293T cells assessed as inhibition of RNA dependent RNA polymerase activity
Type: cell-based, Influenza A virus (A/Weiss/1943(H1N1))
Record form. Attribute: IC50. Fill in for each entry.
Please reply with the bare figure in nM and do not write the unit itself.

Challenge: Look up IC50: Cn1c(=O)c2c(-c3ccccc3)n3c(c2n(C)c1=O)C(c1ccccc1F)OCC3(C)C (configuration not stated)
Response given: 4900

Challenge: Look up IC50: Cc1onc(-c2ccccc2Cl)c1C(=O)N1CCN(c2ccc([N+](=O)[O-])cc2)CC1
Response given: 230
